Just for reference, patent EP4796548A1 is where these values come from.

- subject-of-test: UniProt:Q9NWZ3
- assay-explanation: cell-based
- Format: cell-based
- Set-up: endogenous in cells; host or cells: THP-1 cells
- settings: THP-1
parameter: Dmax

>>> meas_value("C[C@@H]1CN(C2CCN(c3cccc4c3n(C)c(=O)n4C3CCC(=O)NC3=O)CC2)CCN1C[C@H]1CC[C@H](n2nc(C(F)F)c3cc(-c4ccc5cc(C(N)=O)cnn45)ncc32)CC1 (stereo partly drawn) [Compound 12]")
"60 to 70%"
>>> meas_value("Cn1c(=O)n(C2CCC(=O)NC2=O)c2cccc(N3CCC4(CCN(C[C@H]5CC[C@H](n6nc(C(F)F)c7cc(-c8ccc9cc(C(N)=O)cnn89)ncc76)CC5)C4)CC3)c21 (stereo partly drawn) [Compound 6]")
"> 70%"
>>> meas_value("Cn1c(=O)n(C2CCC(=O)NC2=O)c2cccc(N3CCC(N4CCN(C[C@H]5CC[C@H](n6nc(C(F)F)c7cc(-c8ccc9cc(C(N)=O)cnn89)ncc76)CC5)CC4)CC3)c21 (stereo partly drawn) [Compound 2]")
"> 70%"

* * *

- subject-of-test: IRAK4 (Homo sapiens, UniProt Q9NWZ3)
- assay-explanation: detection of proteolysis by Hibit fluorescence (IRAK4 degradation)
- Assay type: cell-based
- Design: host or cells: HEK293T cells (ATCC)
- settings: HEK-293T
parameter: Dmax

>>> meas_value("Cn1c(=O)n(C2CCC(=O)NC2=O)c2cccc(N3CCN(C[C@H]4CC[C@H](n5nc(C(F)F)c6cc(-c7ccc8cc(C(N)=O)cnn78)ncc65)CC4)CC3)c21 (some centres unmarked)")
"< 60%"
>>> meas_value("Cn1c(=O)n(C2CCC(=O)NC2=O)c2cccc(N3CCC(N4CCN(C[C@H]5CC[C@H](n6nc(C(F)F)c7cc(-c8ccc9cc(C(N)=O)cnn89)ncc76)CC5)CC4)CC3)c21 (some centres unmarked)")
"> 80%"
>>> meas_value("Cn1c(=O)n(C2CCC(=O)NC2=O)c2cccc(N3CCC4(CCN(C[C@H]5CC[C@H](n6nc(C(F)F)c7cc(-c8ccc9cc(C(N)=O)cnn89)ncc76)CC5)C4)CC3)c21 (some centres unmarked)")
"> 80%"
>>> meas_value("Cn1c(=O)n(C2CCC(=O)NC2=O)c2cccc(N3CCC4(CCN(C[C@H]5CC[C@H](n6nc(C(F)F)c7cc(-c8ccc9cc(C(N)=O)cnn89)ncc76)CC5)CC4)CC3)c21 (some centres unmarked)")
"> 80%"
>>> meas_value("Cn1c(=O)n(C2CCC(=O)NC2=O)c2cccc(N3CCC4(CCN(C[C@H]5CC[C@H](n6nc(C(F)F)c7cc(-c8ccc9cc(C(N)=O)cnn89)ncc76)CC5)CC4)C3)c21 (some centres unmarked)")
"70 to 80%"

* * *

- subject-of-test: IRAK4 (Homo sapiens, UniProt Q9NWZ3)
- assay-explanation: detection of proteolysis by Hibit fluorescence (IRAK4 degradation)
- Assay type: cell-based
- Set-up: host or cells: HEK293T cells (ATCC)
- settings: HEK-293T
parameter: Dmax

>>> meas_value("Cn1c(=O)n(C2CCC(=O)NC2=O)c2cccc(N[C@H]3CC[C@H](N(C)C[C@H]4CC[C@H](n5nc(C(F)F)c6cc(-c7ccc8cc(C(N)=O)cnn78)ncc65)CC4)CC3)c21 (stereo partly drawn)")
"60 to 70%"
>>> meas_value("Cn1c(=O)n(C2CCC(=O)NC2=O)c2cccc(N3CCN(C4CCN(C[C@H]5CC[C@H](n6nc(C(F)F)c7cc(-c8ccc9cc(C(N)=O)cnn89)ncc76)CC5)CC4)CC3)c21 (stereo partly drawn)")
"> 80%"
>>> meas_value("Cn1c(=O)n(C2CCC(=O)NC2=O)c2cccc(C#CCOC3CCN(C[C@H]4CC[C@H](n5nc(C(F)F)c6cc(-c7ccc8cc(C(N)=O)cnn78)ncc65)CC4)CC3)c21 (stereo partly drawn)")
"70 to 80%"

* * *

- subject-of-test: IRAK4 (Homo sapiens, UniProt Q9NWZ3)
- Sequence (Q9NWZ3 1-460): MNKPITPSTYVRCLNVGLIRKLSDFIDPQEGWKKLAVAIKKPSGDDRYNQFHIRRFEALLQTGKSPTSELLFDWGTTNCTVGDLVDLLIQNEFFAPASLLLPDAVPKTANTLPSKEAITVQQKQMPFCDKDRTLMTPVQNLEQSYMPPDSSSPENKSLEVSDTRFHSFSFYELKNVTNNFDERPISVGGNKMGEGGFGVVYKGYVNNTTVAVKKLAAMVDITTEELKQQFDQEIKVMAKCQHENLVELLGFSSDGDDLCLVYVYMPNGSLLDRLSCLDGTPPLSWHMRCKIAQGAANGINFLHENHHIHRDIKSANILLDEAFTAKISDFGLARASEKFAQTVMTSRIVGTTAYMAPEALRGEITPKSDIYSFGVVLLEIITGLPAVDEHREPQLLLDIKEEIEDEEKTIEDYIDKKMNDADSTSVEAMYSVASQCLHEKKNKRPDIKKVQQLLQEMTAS
- assay-explanation: cell-based
- Type: cell-based
- Parameters: endogenous in cells; host or cells: THP-1 cells
- settings: THP-1
Recorded Dmax, one value per entry.
parameter: Dmax

>>> meas_value("Cn1c(=O)n(C2CCC(=O)NC2=O)c2cccc(-c3cnn(C4CCN(C[C@H]5CC[C@H](n6nc(C(F)F)c7cc(-c8ccc9cc(C(N)=O)cnn89)ncc76)CC5)CC4)c3)c21 (some centres unmarked)")
"< 60%"
>>> meas_value("Cn1nc(C2CCC(=O)NC2=O)c2cccc(N3CCC4(CCN(C[C@H]5CC[C@H](n6nc(C(F)F)c7cc(-c8ccc9cc(C(N)=O)cnn89)ncc76)CC5)C4)CC3)c21 (some centres unmarked)")
"< 60%"
>>> meas_value("Cn1c(=O)n(C2CCC(=O)NC2=O)c2cccc(N3CCN(C4CCN(C[C@H]5CC[C@H](n6nc(C(F)F)c7cc(-c8ccc9cc(C(N)=O)cnn89)ncc76)CC5)CC4)CC3)c21 (some centres unmarked)")
"60 to 70%"
>>> meas_value("C[C@H]1CN(C[C@H]2CC[C@H](n3nc(C(F)F)c4cc(-c5ccc6cc(C(N)=O)cnn56)ncc43)CC2)CCN1C1CCN(c2cccc3c2n(C)c(=O)n3C2CCC(=O)NC2=O)CC1 (some centres unmarked)")
"< 60%"
>>> meas_value("Cn1nc(C2CCC(=O)NC2=O)c2cccc(N3CCC(N4CCN(C[C@H]5CC[C@H](n6nc(C(F)F)c7cc(-c8ccc9cc(C(N)=O)cnn89)ncc76)CC5)CC4)CC3)c21 (some centres unmarked)")
"> 70%"

* * *

- subject-of-test: IRAK4 (Homo sapiens, UniProt Q9NWZ3)
- assay-explanation: cell-based
- Type: cell-based
- Set-up: endogenous in cells; host or cells: THP-1 cells
- settings: WB; THP-1 cells, 24 hours incubation
Recorded DC50, one value per entry.
parameter: DC50

>>> meas_value("Cn1nc(C2CCC(=O)NC2=O)c2cccc(N3CCC(N4CCN(C[C@H]5CC[C@H](n6nc(C(F)F)c7cc(-c8ccc9cc(C(N)=O)cnn89)ncc76)CC5)CC4)CC3)c21 (stereo partly drawn)")
"< 10 nM"
>>> meas_value("C[C@@H]1CC2(CCN(c3cccc4c3n(C)c(=O)n4C3CCC(=O)NC3=O)CC2)CN1C[C@H]1CC[C@H](n2nc(C(F)F)c3cc(-c4ccc5cc(C(N)=O)cnn45)ncc32)CC1 (stereo partly drawn)")
"> 30 nM"
>>> meas_value("Cn1c(=O)n(C2CCC(=O)NC2=O)c2cccc(N3CCC(N4CCN(C[C@H]5CC[C@H](n6nc(C(F)F)c7cc(-c8ccc9cc(C(N)=O)cnn89)ncc76)CC5)CC4)CC3)c21 (stereo partly drawn)")
"< 10 nM"
>>> meas_value("C[C@@H]1CN(C2CCN(c3cccc4c3n(C)c(=O)n4C3CCC(=O)NC3=O)CC2)CCN1C[C@H]1CC[C@H](n2nc(C(F)F)c3cc(-c4ccc5cc(C(N)=O)cnn45)ncc32)CC1 (stereo partly drawn)")
"> 30 nM"
>>> meas_value("Cn1c(=O)n(C2CCC(=O)NC2=O)c2cccc(N3CCC4(CCN(C[C@H]5CC[C@H](n6nc(C(F)F)c7cc(-c8ccc9cc(C(N)=O)cnn89)ncc76)CC5)CC4)CC3)c21 (stereo partly drawn)")
"< 10 nM"
>>> meas_value("Cn1c(=O)n(C2CCC(=O)NC2=O)c2cccc(N3CCC4(CCN(C[C@H]5CC[C@H](n6nc(C(F)F)c7cc(-c8ccc9cc(C(N)=O)cnn89)ncc76)CC5)C4)CC3)c21 (stereo partly drawn)")
"< 10 nM"
>>> meas_value("C[C@H]1CN(C[C@H]2CC[C@H](n3nc(C(F)F)c4cc(-c5ccc6cc(C(N)=O)cnn56)ncc43)CC2)CCN1C1CCN(c2cccc3c2n(C)c(=O)n3C2CCC(=O)NC2=O)CC1 (stereo partly drawn)")
"> 30 nM"
>>> meas_value("Cn1nc(C2CCC(=O)NC2=O)c2cccc(-c3cnn(C4CCN(C[C@H]5CC[C@H](n6nc(C(F)F)c7cc(-c8ccc9cc(C(N)=O)cnn89)ncc76)CC5)CC4)c3)c21 (stereo partly drawn)")
"< 10 nM"
>>> meas_value("Cn1c(=O)n(C2CCC(=O)NC2=O)c2cccc(-c3cnn(C4CCN(C[C@H]5CC[C@H](n6nc(C(F)F)c7cc(-c8ccc9cc(C(N)=O)cnn89)ncc76)CC5)CC4)c3)c21 (stereo partly drawn)")
"> 30 nM"
>>> meas_value("Cn1c(=O)n(C2CCC(=O)NC2=O)c2cccc(N3CCN(C4CCN(C[C@H]5CC[C@H](n6nc(C(F)F)c7cc(-c8ccc9cc(C(N)=O)cnn89)ncc76)CC5)CC4)CC3)c21 (stereo partly drawn)")
"< 10 nM"
>>> meas_value("Cn1nc(C2CCC(=O)NC2=O)c2cccc(N3CCC4(CCN(C[C@H]5CC[C@H](n6nc(C(F)F)c7cc(-c8ccc9cc(C(N)=O)cnn89)ncc76)CC5)C4)CC3)c21 (stereo partly drawn)")
"10 to 30 nM"
>>> meas_value("C[C@H]1CN(C2CCN(c3cccc4c3n(C)c(=O)n4C3CCC(=O)NC3=O)CC2)CCN1C[C@H]1CC[C@H](n2nc(C(F)F)c3cc(-c4ccc5cc(C(N)=O)cnn45)ncc32)CC1 (stereo partly drawn)")
"> 30 nM"
